experimentNotes: yeast display, Sf9 membrane polyspecificity reagent, FACS + sequencing; frameworks hold sequencing errors

sequenceRecord	polyreactivity (PSR sort gate)
QVQLVESGGGLVQEGGSLRLICAASGSIFWLYAMGWYRQAPGKERELVAAIDSGDSTKYADSVKGRFTISRDNAKYTVYLQMNSLKPEDTAVYYCNASRRYHVRAPYDYWGQGTQVTVSS	low polyreactivity
QVQLVESGGCLVQAGGSLRLSCAASRRIFNYYAMGWYRQAPGKERELVAAINSGGSTYADSVKGRFTISRDNAKNTVYLQMNSLKPEDTAVYYCAKDGQLLSGRERPSGYDHWGQGTQVTVSS	low polyreactivity
QVQLVESGGGLVQAGGSLRLSCAASGYIFYFNAMAWYRQAPGKEMELVAVISDRDDSTYYADSVKGRFTISRDNAKNTVYLHMNSLKPEDTAVYYCAADGDTYYNYYHWGQGTQVTVSS	low polyreactivity
QVQLVESGGGLVHAGGSLRLSCAASGSTFGFYARGWYRQAPGKERELVAAITTGGSTNYADSVKGRFTISRVNAKNTVYLQMYSLKPEDSAVYYCHADVYWNPYYDYDYWGQGTLVTVSS	high polyreactivity
QVQLVESGGGLVQARGSLRLSCAASGLTFTVDAMGWYRQAPGKEREFVAAISYSAGRTYYADSVKGRFTISRDNAKNTVYLQMNSLKPADTAVYYCAAATYYSIYDYWGQGTQVTVSS	high polyreactivity
QDQLEESGVGLLQAGGSLRLSCAASGNTFFVNDMGWYRHAPRKERELLAVISINGDSTFYADSVKGRFTISRDNAKNTVYLQMNSLKPEDTAVYYCAADFRRVFCKYSYYLYFEFDYWGQGTQVTVSS	low polyreactivity
QVQLVESGGGLVQAGGSLRLSCAAYGSTFEYYVMGWYRQAPGKERELVAAISGSGGGTYYADSVKGRFTISRDNAKNTVSLQMNSLKPEDTAVYYCAAVATLEKYDYWGQGNQVTVSS	low polyreactivity
QVQLVESGGGLVQAGGSLRLSCAASGSTFVYNALGWDRQAPGKERELVAAITRRGGTTYYADSVKGRFTMSRDNAKNTVYLQMNSLKQEDTAVYYCAARTRGTAYNYSGQGTQVTVSS	high polyreactivity
QVQLVESGGGLVQAGGSLRLSCAASGSIFDYNAMGWYRQAPGKERELVAAITSTDSTYADSVKGRFTISRDNAKNTVYLQMNSLKPEDTAVYYCAAEDVIYYLTGQWREYDYWGQGTQVTVSS	low polyreactivity
QVQLVESGGGLVQAGGSLRLSCAASGFTFGQYAMGWYRQAPVKERELVAAITGSGGRTYYADSVKGRITISRDTAKNTVYLQMNSLKPEDTGVYYCNARVPLRQYSNYYWGQGTQVTVSS	high polyreactivity
QVQLVESGGGLVQAGGGLRLSCAASGFTFYLYVMGWYRQAPGKERELVARISRSGGTTYYADSVKGRFTISRDNAKNTVYLQMNSLKPEDTAVYYCAARRYGVPPTYDYCGQGTQVTVSS	high polyreactivity
QVQLVESGGGLVQAGGSLRLSCAASGSTFRQYAMGWYRQAPGKERELVAAIRGRDGSTYYADSVKGRFTISRDNAKNTVYLQMNSLKPEDTAVYYCNVVARGVSPGYDYWGQGTQVTVSS	high polyreactivity
QVQLVESGGRLVQAGGSLRLSCAASGFILLAYAMGWYRQAHGKERELVAAITSGGSTHYADSVKGRFTISRDNAKNTVYLQMNSLKPEDTAVYYCAKDTVFRYSGNTYGYWGQGTQVTVSS	low polyreactivity
QVQLVESGGGLVQAGGSLRLSCAASGRTFYNTMGLYRQAPGKERELVAAISRGGITNYADSVKGRFTISRDSAKNTGDLQMHSLKPEDTAVYYCNAEPKRYYYYYKFDSWGQGTQVTVSS	high polyreactivity
QVQLVESGRGLVQAGASLRLSCAASGRTFPYYARGRYRQAPGKERELVAAITTGGSTNYADSVKGRFTISRDNAKNTVYLQMNRLKPEDTAVYYCAKRFYRSRLNYYYWGQGTQVTVSS	high polyreactivity
QVQLVESGGGLVQAGGSLRLSCAASGFTFTRYAMGWYRQAPGKERELVAVITYSGDTSYADSVKGRFTISRDNAKNTVYLQMNSLKPEDTAVYYCAVERAYYSDTGRYGYDYWGQGTQVTVSS	high polyreactivity
QVQLVESGGGLVQAGGSLRLSCAASGFTLYEYAMGWYRQAPGKERELVAAISSAGNTNYADSVKGRFTISRDNAKNTVYLQLNSLKPEDTAVYYCAKYRYDYTKTEGGYWGQGTQVTVSS	low polyreactivity
QVQLVESGGGLVQAGGSLRLSCAASGSTLGYYVMGWYRQAPGKERELVAAITGGGSTDYADSVKGRFTISRDNAKNTVYLQMNSLKPEDTAVDYCAAERTRTGQLFCWGPIYEYWGQGTQVTVSS	low polyreactivity
QVQLVESGGGLVQAGGSLRLSCAASGIIFYRYAMGWYRQAPGKEWELVAAITRRGGSTYYADSVKGRFTISRDNAKNTVYLQMNSLKPEDTGVYYCNARVRYTSADPSYYSWGQGTQVTVSS	high polyreactivity
QVQLVESGGGLVQAGGSLRLSCAASGRIFPWYAMGWYRQAPGKERELVAAITSGGGSTSYADSVKGRFTISRDNAKNTVYLQMNRLKPEDTAVYYCAARRWISSHSYKYGYWGQGTQVTVSS	high polyreactivity
QVQLQESGGGQVQAGGSLRLSCAASGTIFLYAFMGWYRQAPGKERELVAAIDVGTTTNYADSVKGRFTISRDNAKNTVYLQMNSLKPEDTAVYYCAAPYVSWDYRYYYWGQGTQVTVSS	low polyreactivity
